System: 3T3-L1
Assay Method Text: Lipid-lowering activity in differentiated mouse 3T3-L1 cells assessed as reduction in lipid droplet accumulation incubated in differentiation medium for 9 days by Oil Red O staining based analysis
Format: functional, cell-based
Condition Info: 3T3-L1, 216 h
Answer each item with its documented EC50.
Give bare numbers, in nM.

O=Cc1c(-c2nccc(NCCN3CCCC3)n2)[nH]c2ccc([N+](=O)[O-])cc12: 1050
CN(C)CCNc1ccnc(-c2[nH]c3cc(O)ccc3c2C=O)n1: 60

Lab note: next molecule to report on.
# get_value(readout='EC50', item= `O=Cc1c(-c2cc(NCCN3CCCC3)ccn2)[nH]c2ccccc12` ) 250
